Each recorded value in this set is attributed to ChEMBL document CHEMBL2390847.

Biological target: PI3K p110 beta/p85 alpha (Homo sapiens, UniProt P42338)
Sequence (P27986 whole entry): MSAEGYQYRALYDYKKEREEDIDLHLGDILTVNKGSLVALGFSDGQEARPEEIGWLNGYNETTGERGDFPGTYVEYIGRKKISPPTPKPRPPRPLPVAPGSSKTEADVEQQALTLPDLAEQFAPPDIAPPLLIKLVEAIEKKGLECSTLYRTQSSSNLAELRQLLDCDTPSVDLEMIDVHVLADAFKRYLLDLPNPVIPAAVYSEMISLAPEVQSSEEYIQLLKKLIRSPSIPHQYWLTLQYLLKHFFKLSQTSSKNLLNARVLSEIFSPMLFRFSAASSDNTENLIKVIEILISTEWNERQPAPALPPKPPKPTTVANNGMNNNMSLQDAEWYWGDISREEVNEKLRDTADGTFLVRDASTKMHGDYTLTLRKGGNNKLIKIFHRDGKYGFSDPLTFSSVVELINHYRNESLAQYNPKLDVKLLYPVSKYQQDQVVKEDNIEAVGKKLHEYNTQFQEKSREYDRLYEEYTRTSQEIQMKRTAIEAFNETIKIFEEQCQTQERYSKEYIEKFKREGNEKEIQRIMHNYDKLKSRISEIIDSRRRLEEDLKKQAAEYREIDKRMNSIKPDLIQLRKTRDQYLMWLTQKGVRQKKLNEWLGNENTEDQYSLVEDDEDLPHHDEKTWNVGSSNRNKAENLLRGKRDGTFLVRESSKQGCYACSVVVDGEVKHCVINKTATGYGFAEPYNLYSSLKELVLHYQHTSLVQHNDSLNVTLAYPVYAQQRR
Sequence (P42338 whole entry): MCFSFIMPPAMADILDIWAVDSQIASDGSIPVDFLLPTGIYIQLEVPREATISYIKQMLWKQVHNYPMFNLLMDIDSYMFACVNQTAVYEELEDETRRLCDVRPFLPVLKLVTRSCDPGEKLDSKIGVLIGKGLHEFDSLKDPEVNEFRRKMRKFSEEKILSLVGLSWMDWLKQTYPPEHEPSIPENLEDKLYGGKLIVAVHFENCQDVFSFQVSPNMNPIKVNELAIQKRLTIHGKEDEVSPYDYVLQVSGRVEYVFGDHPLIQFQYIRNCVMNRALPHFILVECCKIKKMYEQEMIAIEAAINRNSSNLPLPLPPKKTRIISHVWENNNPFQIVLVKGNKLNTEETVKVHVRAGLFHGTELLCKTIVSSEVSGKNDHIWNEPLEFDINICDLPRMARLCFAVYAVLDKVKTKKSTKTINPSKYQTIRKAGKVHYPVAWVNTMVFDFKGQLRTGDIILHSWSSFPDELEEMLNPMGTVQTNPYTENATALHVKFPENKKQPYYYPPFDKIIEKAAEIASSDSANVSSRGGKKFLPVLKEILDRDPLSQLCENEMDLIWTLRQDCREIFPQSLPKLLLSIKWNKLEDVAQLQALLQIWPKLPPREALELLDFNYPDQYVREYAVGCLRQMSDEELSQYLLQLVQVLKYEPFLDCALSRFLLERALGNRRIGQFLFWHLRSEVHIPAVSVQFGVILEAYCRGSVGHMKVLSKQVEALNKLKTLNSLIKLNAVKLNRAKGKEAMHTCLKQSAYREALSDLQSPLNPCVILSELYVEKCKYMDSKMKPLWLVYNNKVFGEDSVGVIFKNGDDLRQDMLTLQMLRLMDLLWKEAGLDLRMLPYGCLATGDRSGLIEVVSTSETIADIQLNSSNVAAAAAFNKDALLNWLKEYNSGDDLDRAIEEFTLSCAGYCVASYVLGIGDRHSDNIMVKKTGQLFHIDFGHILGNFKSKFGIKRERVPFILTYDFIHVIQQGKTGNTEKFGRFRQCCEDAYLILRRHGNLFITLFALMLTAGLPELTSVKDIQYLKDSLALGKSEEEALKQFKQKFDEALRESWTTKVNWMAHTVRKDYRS
Test: Inhibition of recombinant PI3K p110beta/p85alpha (unknown origin) using phosphotidylinositol as susbstrate after 1 hr by thin layer paper chromatographic analysis in presence of [gamma-33P]ATP
pIC50: −log10 of the molar value.
MEASUREMENT TYPE: pIC50

[A] NCCC(=O)Nc1cccc2c1nc(C(F)F)n2-c1nc(N2CCOCC2)nc(N2CCOCC2)n1
[B] CN(C)CC(=O)Nc1cccc2c1nc(C(F)F)n2-c1nc(N2CCOCC2)nc(N2CCOCC2)n1
Higher pIC50: A or B ? Answer format: the label of the selected item. B

[P] NCC(=O)Nc1cccc2c1nc(C(F)F)n2-c1nc(N2CCOCC2)nc(N2CCOCC2)n1
[Q] CN(C)CCNc1cccc2c1nc(C(F)F)n2-c1nc(N2CCOCC2)nc(N2CCOCC2)n1
[R] OCCOc1cccc2c1nc(C(F)F)n2-c1nc(N2CCOCC2)nc(N2CCOCC2)n1
[S] OCCCOc1cccc2c1nc(C(F)F)n2-c1nc(N2CCOCC2)nc(N2CCOCC2)n1
Task field, ranking: reported pIC50, descending order. Rank the items, then write their labels in that order. R, Q, S, P

[P] OCC(O)COc1cccc2c1nc(C(F)F)n2-c1nc(N2CCOCC2)nc(N2CCOCC2)n1 (stereo not drawn)
[Q] NCCCOc1cccc2c1nc(C(F)F)n2-c1nc(N2CCOCC2)nc(N2CCOCC2)n1
Would you kindly point out which of P and Q has the smaller pIC50 figure? Answer format: the label of the selected item. Q
